assay_notes: Cytotoxicity against human CEM cells assessed as inhibition of cell proliferation
Type: cell-based
measurement_context: CEM cells (CCRF-CEM)
Lab note: anything with CC50 below 60 µM is marked Condition met; values at 60 µM or higher are marked Condition not met.

Say whether its CC50 is strictly beneath 60 µM. Entry: CCCCCCCCCCCCOC(=O)c1cc(O)c(O)c(O)c1 [DODECYL GALLATE]
Condition met

Below 60 µM on CC50? Entry `O=C(NCCCCCCCCCCCCNC(=O)c1cc(O)c(O)c(O)c1)c1cc(O)c(O)c(O)c1`
Condition met

# TODO verify CC50 < 60 µM strictly for this molecule: `O=C(NCCCCCCCCNC(=O)c1ccc(O)c(O)c1O)c1ccc(O)c(O)c1O`
Condition not met

Given `O=C(OCCCCCCCCCCCCOC(=O)c1cc(O)c(O)c(O)c1)c1cc(O)c(O)c(O)c1` , is recorded CC50 strictly lower than 60 µM?
Condition met

Here's an entry: `O=C(NCCCCCCCCCCCCNC(=O)c1ccccc1O)c1ccccc1O` . Is its CC50 below 60 µM?
Condition not met

I wonder whether `O=C(OCCCCCCOC(=O)c1cc(O)c(O)c(O)c1)c1cc(O)c(O)c(O)c1` has CC50 below 60 µM. Can you tell?
Condition met

Is CC50 strictly under 60 µM for the entry `O=C(NCCCCNC(=O)c1ccccc1O)c1ccccc1O` ?
Condition met

I wonder whether CCCCOC(=O)c1cc(O)c(O)c(O)c1 [BUTYL GALLATE] has CC50 below 60 µM. Can you tell?
Condition met

A record lists `O=C(NCCCCN(CCCNC(=O)c1cc(O)c(O)c(O)c1)C(=O)c1cc(O)c(O)c(O)c1)c1cc(O)c(O)c(O)c1` . Is its CC50 below 60 µM?
Condition not met

Decide: CC50 of `O=C(NCCCCCCNC(=O)c1cc(O)c(O)c(O)c1)c1cc(O)c(O)c(O)c1` strictly below 60 µM?
Condition not met
